# tested.on: EGFR (ErbB1) (Homo sapiens, UniProt P00533)
# Construct: purchased Invitrogen
# Sequence (P00533 25-1210): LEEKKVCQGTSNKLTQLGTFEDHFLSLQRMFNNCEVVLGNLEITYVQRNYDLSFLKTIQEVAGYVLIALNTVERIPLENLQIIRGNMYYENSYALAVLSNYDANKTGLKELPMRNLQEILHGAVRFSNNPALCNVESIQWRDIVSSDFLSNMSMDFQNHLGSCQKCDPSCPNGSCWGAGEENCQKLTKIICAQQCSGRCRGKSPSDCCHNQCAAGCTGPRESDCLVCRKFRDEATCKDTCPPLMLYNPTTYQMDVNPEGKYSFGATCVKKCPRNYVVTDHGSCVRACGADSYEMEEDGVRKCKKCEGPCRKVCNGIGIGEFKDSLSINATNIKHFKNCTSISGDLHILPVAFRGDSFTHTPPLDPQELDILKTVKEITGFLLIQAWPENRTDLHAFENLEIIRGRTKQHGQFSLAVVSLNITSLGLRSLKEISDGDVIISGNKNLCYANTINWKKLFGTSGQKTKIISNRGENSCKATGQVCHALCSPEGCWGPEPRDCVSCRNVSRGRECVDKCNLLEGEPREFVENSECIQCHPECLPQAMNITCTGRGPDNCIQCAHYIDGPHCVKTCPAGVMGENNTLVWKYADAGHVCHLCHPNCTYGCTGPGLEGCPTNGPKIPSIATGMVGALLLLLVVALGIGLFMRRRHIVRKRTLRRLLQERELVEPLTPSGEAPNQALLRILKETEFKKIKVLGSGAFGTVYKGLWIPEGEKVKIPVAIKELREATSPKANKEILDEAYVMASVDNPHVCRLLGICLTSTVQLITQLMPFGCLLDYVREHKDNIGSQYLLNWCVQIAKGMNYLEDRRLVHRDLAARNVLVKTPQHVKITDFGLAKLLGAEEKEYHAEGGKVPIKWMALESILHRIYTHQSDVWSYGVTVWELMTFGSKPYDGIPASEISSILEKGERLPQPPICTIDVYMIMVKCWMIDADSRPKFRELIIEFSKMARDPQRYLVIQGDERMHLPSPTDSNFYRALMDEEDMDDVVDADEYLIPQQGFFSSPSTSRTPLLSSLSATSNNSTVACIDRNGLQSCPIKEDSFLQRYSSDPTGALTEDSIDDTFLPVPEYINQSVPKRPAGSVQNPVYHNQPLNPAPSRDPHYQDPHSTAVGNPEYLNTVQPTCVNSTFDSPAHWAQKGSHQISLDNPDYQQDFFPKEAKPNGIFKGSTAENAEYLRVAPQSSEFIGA
# test.protocol: In vitro kinase assay (Z′-LYTE)
# Format: biochemical
# test.conditions: read-out: % of inhibition of the kinase compared to the control
# Experimental: The inhibitory activity of the compounds on several kinases including BRAF, EGFR (ErbB1), EGFR (ErbB1) T790M L858R, FGFR2, KDR (VEGFR2), PDGFRA (PDGFR alpha), SRC and other was evaluated by Invitrogen using the Z′-LYTE® technology. Briefly, the Z′-LYTE® biochemical assay employs a fluorescence-based, coupled-enzyme format and is based on the differential sensitivity of phosphorylated and non-phosphorylated peptides to proteolytic cleavage. […]
result.type: inhibition at 0.1 µM

// fetch inhibition at 0.1 µM for COC(=O)c1cc2cc(NCc3cc(NC(=O)Nc4cccnc4)ccc3C)cnc2[nH]1 ; system: EGFR (ErbB1) (Homo sapiens, UniProt P00533)
≥ 50%

* * *

Listed below: inhibition at 0.1 µM values for each entry.
# tested.on: PDGFRA (PDGFR alpha) (Homo sapiens, UniProt P16234)
# Construct: purchased Invitrogen
# Sequence (P16234 24-1089): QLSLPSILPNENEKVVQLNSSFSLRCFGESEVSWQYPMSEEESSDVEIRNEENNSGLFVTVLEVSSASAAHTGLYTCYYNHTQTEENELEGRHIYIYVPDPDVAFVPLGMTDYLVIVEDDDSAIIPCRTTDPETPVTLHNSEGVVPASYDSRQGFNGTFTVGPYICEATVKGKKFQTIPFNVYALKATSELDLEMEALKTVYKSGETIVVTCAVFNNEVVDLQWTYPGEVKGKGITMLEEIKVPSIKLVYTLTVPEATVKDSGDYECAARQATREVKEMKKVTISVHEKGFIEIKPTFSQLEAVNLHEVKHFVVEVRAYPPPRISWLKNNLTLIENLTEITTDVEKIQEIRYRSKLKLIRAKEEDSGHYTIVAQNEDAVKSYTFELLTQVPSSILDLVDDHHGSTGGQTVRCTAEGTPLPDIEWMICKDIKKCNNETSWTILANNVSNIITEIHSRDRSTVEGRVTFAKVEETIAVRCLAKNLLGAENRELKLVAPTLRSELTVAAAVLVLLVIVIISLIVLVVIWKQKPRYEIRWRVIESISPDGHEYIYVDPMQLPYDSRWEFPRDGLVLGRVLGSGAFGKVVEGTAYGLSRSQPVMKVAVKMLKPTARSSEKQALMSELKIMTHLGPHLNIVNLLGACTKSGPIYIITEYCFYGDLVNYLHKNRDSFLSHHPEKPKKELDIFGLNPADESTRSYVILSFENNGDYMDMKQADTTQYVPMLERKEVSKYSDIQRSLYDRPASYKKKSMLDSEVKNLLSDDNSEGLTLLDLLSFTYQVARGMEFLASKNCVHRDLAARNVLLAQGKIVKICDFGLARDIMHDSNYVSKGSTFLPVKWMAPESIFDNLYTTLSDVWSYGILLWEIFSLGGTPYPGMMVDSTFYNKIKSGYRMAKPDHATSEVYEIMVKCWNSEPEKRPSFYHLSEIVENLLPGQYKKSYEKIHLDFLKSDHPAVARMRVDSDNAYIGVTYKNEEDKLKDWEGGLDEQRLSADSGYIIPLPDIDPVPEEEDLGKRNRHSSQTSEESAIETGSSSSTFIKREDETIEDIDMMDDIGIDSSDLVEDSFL
# test.protocol: In vitro kinase assay (Z′-LYTE)
# Format: biochemical
# test.conditions: read-out: % of inhibition of the kinase compared to the control

Record excerpt, results attached:
1) COC(=O)c1cc2cc(NCc3cc(NC(=O)c4ccc5c(c4)OCO5)ccc3C)cnc2[nH]1 = ≥ 50%
2) COC(=O)c1cc2cc(NCc3cc(NC(=O)c4ccc(CN5CCC(O)CC5)c(C(F)(F)F)c4)ccc3C)cnc2[nH]1 = ≥ 50%
3) COC(=O)c1cc2cc(NCc3cc(NC(=O)Nc4cccc(C(F)(F)F)c4)ccc3C)cnc2[nH]1 = ≥ 50%

Return value of inhibition at 0.1 µM for input COC(=O)c1cc2cc(NCc3ccc(C)c(NC(=O)c4ccc(CN5CCN(C)CC5)c(C(F)(F)F)c4)c3)cnc2[nH]1 , no commentary.
≥ 50%

Return value of inhibition at 0.1 µM for input COC(=O)c1cc2cc(NCc3cc(NC(=O)c4ccccc4OC)ccc3C)cnc2[nH]1 , no commentary.
≥ 50%

Return value of inhibition at 0.1 µM for input COC(=O)c1cc2cc(NCc3cc(NC(=O)c4ccc(Cn5cnc(C)c5)c(C(F)(F)F)c4)ccc3C)cnc2[nH]1 , no commentary.
≥ 50%

Return value of inhibition at 0.1 µM for input COC(=O)c1cc2cc(NCc3cc(NC(=O)c4ccc(CN5CCOCC5)c(C(F)(F)F)c4)ccc3C)cnc2[nH]1 , no commentary.
≥ 50%

Return value of inhibition at 0.1 µM for input COC(=O)c1cc2cc(NCc3cc(NC(=O)c4ccc(CN5CCN(C)CC5)c(C(F)(F)F)c4)ccc3F)cnc2[nH]1 , no commentary.
≥ 50%

Return value of inhibition at 0.1 µM for input COC(=O)c1cc2cc(NCc3cc(NC(=O)c4cccc(Br)c4)ccc3C)cnc2[nH]1 , no commentary.
≥ 50%

Return value of inhibition at 0.1 µM for input COC(=O)c1cc2cc(NCc3cc(NC(=O)c4ccc(-c5csc(C)n5)cc4)ccc3C)cnc2[nH]1 , no commentary.
≥ 50%

* * *

# tested.on: KDR (VEGFR2) (Homo sapiens, UniProt P35968)
# Construct: purchased Invitrogen
# Sequence (P35968 20-1356): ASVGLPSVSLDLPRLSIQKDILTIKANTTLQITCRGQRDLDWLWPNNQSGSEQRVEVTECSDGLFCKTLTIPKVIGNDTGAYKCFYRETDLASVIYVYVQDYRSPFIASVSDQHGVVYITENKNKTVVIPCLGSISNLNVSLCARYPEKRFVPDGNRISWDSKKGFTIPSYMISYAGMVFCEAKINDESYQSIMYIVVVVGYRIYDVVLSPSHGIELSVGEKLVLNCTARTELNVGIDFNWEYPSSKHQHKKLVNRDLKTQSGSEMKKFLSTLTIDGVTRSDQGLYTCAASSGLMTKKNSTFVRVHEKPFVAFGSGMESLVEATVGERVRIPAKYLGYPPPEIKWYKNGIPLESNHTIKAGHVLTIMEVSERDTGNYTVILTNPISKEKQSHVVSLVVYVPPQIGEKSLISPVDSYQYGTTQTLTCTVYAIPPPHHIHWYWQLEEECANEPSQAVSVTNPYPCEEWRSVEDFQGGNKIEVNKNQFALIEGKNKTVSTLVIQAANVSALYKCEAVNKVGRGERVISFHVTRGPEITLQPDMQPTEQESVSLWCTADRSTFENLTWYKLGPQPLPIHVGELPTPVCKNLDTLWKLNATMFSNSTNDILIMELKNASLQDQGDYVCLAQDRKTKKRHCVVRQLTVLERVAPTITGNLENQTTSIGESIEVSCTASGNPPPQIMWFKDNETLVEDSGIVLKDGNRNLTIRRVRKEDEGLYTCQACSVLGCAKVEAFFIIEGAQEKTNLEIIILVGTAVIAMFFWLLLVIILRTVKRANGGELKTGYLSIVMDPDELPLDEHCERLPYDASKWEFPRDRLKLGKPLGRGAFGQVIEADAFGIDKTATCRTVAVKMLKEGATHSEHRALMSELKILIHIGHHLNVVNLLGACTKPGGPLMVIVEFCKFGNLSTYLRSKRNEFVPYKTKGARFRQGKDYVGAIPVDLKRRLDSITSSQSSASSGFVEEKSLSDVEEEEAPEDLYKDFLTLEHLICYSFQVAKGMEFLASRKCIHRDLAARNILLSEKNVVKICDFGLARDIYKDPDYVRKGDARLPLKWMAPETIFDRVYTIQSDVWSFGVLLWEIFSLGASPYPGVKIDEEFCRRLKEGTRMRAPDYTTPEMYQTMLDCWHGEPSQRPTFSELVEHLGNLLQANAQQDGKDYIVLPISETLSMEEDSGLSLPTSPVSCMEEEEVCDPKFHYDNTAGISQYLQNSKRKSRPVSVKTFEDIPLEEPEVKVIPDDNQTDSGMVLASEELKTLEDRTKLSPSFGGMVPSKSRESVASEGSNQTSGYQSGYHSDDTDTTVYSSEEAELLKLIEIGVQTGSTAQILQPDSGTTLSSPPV
# test.protocol: In vitro kinase assay (Z′-LYTE)
# Format: biochemical
# test.conditions: read-out: % of inhibition of the kinase compared to the control
result.type: inhibition at 0.1 µM

1) COC(=O)c1cc2cc(NCc3cc(NC(=O)c4cncc(C(F)(F)F)c4)ccc3C)cnc2[nH]1 = ≥ 50%
2) COC(=O)c1cc2cc(NCc3cc(NC(=O)c4ccc(CN5CCOCC5)c(C(F)(F)F)c4)ccc3C)cnc2[nH]1 = < 50%
3) COC(=O)c1cc2cc(NCc3cc(NC(=O)c4cccc(OC(F)(F)F)c4)ccc3C)cnc2[nH]1 = < 50%
4) COC(=O)c1cc2cc(NCc3cc(NC(=O)c4cccc(C(C)C)c4)ccc3C)cnc2[nH]1 = < 50%
5) COC(=O)c1cc2cc(NCc3cc(NC(=O)c4cncc(C)c4)ccc3C)cnc2[nH]1 = ≥ 50%
6) COC(=O)c1cc2cc(NCc3cc(NC(=O)c4cccc5c4OCC5)ccc3C)cnc2[nH]1 = < 50%

Moving on to the next compound.
Return value of inhibition at 0.1 µM for input COC(=O)c1cc2cc(NCc3cc(NC(=O)c4ccc5[nH]nnc5c4)ccc3C)cnc2[nH]1 , no commentary.
< 50%

* * *

# Test system: HuH7
# test.protocol: In vitro cell proliferation assay (MTT)
# Format: cell-based
# test.conditions: Homo sapiens, Huh-7, 72 h
pEC50: −log10 of the molar value.
result.type: pEC50

1. COC(=O)c1cc2cc(NCc3cc(NC(=O)c4ccc(CN5CCN(C)CC5)c(C(F)(F)F)c4)ccc3F)cnc2[nH]1 [OR0816] = 6.00 to 7.00
2. COC(=O)c1cc2cc(NCc3cc(NS(=O)(=O)c4cccc(C(F)(F)F)c4)ccc3C)cnc2[nH]1 [OR0882] = ≤ 6.00
3. COC(=O)c1cc2cc(NCc3cc(NC(=O)c4ccc(C(F)(F)F)nc4)ccc3C)cnc2[nH]1 [OR0865] = ≤ 6.00
4. COC(=O)c1cc2cc(NCc3cc(NC(=O)c4cc(CN5CCN(C)CC5)cc(C(F)(F)F)c4)ccc3C)cnc2[nH]1 [OR0699] = 6.00 to 7.00
5. COC(=O)c1cc2cc(NCc3cc(NC(=O)c4ccnc(C)c4)ccc3C)cnc2[nH]1 [OR0868] = ≤ 6.00

Return value of pEC50 for input COC(=O)c1cc2cc(NC(=O)c3cc(NC(=O)c4cncc(C(F)(F)F)c4)ccc3C)cnc2[nH]1 [OR0745] , no commentary.
6.00 to 7.00

Return value of pEC50 for input COC(=O)c1cc2cc(NCc3cc(NC(=O)c4ccnc(C(F)(F)F)c4)ccc3C)cnc2[nH]1 [OR0866] , no commentary.
≤ 6.00

* * *

# tested.on: BRAF (Homo sapiens, UniProt P15056)
# Construct: purchased Invitrogen
# Sequence (P15056 whole entry): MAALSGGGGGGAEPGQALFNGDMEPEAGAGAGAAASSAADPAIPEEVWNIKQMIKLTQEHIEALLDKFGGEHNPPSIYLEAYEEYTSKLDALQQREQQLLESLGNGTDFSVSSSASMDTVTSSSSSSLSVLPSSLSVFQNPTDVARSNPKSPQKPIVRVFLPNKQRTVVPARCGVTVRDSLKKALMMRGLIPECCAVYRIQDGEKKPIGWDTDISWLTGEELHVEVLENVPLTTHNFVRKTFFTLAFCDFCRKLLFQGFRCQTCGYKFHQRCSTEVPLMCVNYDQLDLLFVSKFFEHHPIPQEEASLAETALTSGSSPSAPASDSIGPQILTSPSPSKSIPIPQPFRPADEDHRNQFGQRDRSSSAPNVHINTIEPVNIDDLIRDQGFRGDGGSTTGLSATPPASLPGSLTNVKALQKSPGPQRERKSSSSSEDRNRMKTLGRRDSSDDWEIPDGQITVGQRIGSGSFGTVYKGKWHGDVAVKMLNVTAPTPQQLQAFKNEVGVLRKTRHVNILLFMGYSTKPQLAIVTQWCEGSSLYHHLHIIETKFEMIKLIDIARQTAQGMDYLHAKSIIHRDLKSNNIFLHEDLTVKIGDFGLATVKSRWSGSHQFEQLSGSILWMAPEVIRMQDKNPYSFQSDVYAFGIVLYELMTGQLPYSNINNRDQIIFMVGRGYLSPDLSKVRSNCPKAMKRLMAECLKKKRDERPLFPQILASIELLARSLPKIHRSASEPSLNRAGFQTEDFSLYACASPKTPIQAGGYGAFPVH
# test.protocol: In vitro kinase assay (Z′-LYTE)
# Format: biochemical
# test.conditions: compound 100 nM; ATP 100 μM; read-out: % of inhibition of the kinase compared to the control
result.type: inhibition at 0.1 µM

Record excerpt, results attached:
1. COC(=O)c1cc2cc(NCc3cc(NC(=O)C4CCC(C(F)(F)F)CC4)ccc3C)cnc2[nH]1 (stereo not drawn) [OR0612] = < 50%
2. COC(=O)c1cc2cc(NCc3cc(NC(=O)c4ccc(CNCCN5CCN(C)CC5)c(C(F)(F)F)c4)ccc3C)cnc2[nH]1 [OR0637] = ≥ 50%
3. COC(=O)c1cc2cc(NCc3cc(NC(=O)c4cc(Nc5cc[nH]n5)cc(C(F)(F)F)c4)ccc3C)cnc2[nH]1 [OR0642] = < 50%
4. COC(=O)c1cc2cc(NCc3cc(NC(=O)Cc4ccccc4Br)ccc3C)cnc2[nH]1 [OR0599] = ≥ 50%
5. COC(=O)c1cc2cc(NCc3cccc(C(=O)NCc4cccc(C(F)(F)F)c4)c3)cnc2[nH]1 [OR1004] = < 50%

Return value of inhibition at 0.1 µM for input COC(=O)c1cc2cc(NCc3cccc(C(=O)Nc4ccc(CN5CCN(C)CC5)c(C(F)(F)F)c4)c3)cnc2[nH]1 [OR0635] , no commentary.
< 50%

* * *

# Test system: HUVEC
# test.protocol: In vitro cell proliferation assay (MTT)
# Type: cell-based
# test.conditions: Homo sapiens, 72 h
# Description: Cancer cell lines (5×10^3 cells per well) or HUVEC (1×10^4 cells per well) or HRMEC (1×10^4 cells per well) were distributed in 96-well plates and incubating in duplicate with escalating concentrations (10 nM to 3 μM) of compounds for 72 hr. Cell proliferation was measured using MTT (3 [4,5-dimethylthiazol-2-yl]-2,5-diphenyltetrazolium bromide).
pEC50: −log10 of the molar value.
result.type: pEC50

Record excerpt, results attached:
1) COC(=O)c1cc2cc(NCc3cc(NC(=O)Cc4cccc(C(F)(F)F)c4)ccc3C)cnc2[nH]1 [OR0601] = ≥ 7.00
2) COC(=O)c1cc2cc(NCc3cccc(C(=O)NCc4cccc(C(F)(F)F)c4)c3)cnc2[nH]1 [OR1004] = ≤ 6.00
3) COC(=O)c1cc2cc(NCc3cc(NC(=O)c4cc(CN5CCN(C)CC5)cc(C(F)(F)F)c4)ccc3C)cnc2[nH]1 [OR0699] = 6.00 to 7.00

Return value of pEC50 for input COC(=O)c1cc2cc(NCc3cc(NC(=O)c4cncc(C(F)(F)F)c4)ccc3C)cnc2[nH]1 [OR0604] , no commentary.
6.00 to 7.00

Return value of pEC50 for input COC(=O)c1cc2cc(NCc3cc(NC(=O)Cc4ccccc4Br)ccc3C)cnc2[nH]1 [OR0599] , no commentary.
6.00 to 7.00

Return value of pEC50 for input COC(=O)c1cc2cc(NCc3cc(NC(=O)c4ccc(C(F)(F)F)nc4)ccc3C)cnc2[nH]1 [OR0865] , no commentary.
6.00 to 7.00

Return value of pEC50 for input COC(=O)c1cc2cc(NC(=O)c3cccc(CNC(=O)c4ccc(CN5CCN(C)CC5)c(C(F)(F)F)c4)c3)cnc2[nH]1 [OR0983] , no commentary.
≤ 6.00

Return value of pEC50 for input COC(=O)c1cc2cc(NCc3cc(NC(=O)c4ccc(CN5CCC(N(C)C)C5)c(F)c4)ccc3C)cnc2[nH]1 (centres unmarked) [OR0974] , no commentary.
≤ 6.00
